Reference source: the array DNA melting data of Ke et al. (doi:10.1101/2024.01.08.574731)

- method.description: folding enthalpy; higher = less favourable; fluorescence melt of hairpins on a sequencing array, two-state fit
- run.conditions: sodium 0.088 M
Param threshold (-30 kcal/mol) applies to folding enthalpy; output Condition met when value >= threshold, Condition not met when value < threshold.

Data request: Quick check: does GGTTGCGAAAGCACGACC ((((((....)))..))) have folding enthalpy greater than or equal to -30 kcal/mol?
Data returned: Condition met

Data request: Quick check: does GTTCCGGGAAACTGGAGC (.(((.(....).))).) have folding enthalpy greater than or equal to -30 kcal/mol?
Data returned: Condition met

Data request: Quick check: does GACGGCGAAAGCCCCGTC ((((((....)))..))) have folding enthalpy greater than or equal to -30 kcal/mol?
Data returned: Condition met

Data request: Quick check: does GTAGCTCGAAAGAGTTAC (((.(((....))).))) have folding enthalpy greater than or equal to -30 kcal/mol?
Data returned: Condition not met

Data request: Quick check: does GATCGTCCAAACGATC ((((((....)))))) have folding enthalpy greater than or equal to -30 kcal/mol?
Data returned: Condition not met

Data request: Quick check: does GATCTATTTTAGATC ((((((...)))))) have folding enthalpy greater than or equal to -30 kcal/mol?
Data returned: Condition not met

Data request: Quick check: does GCACATGGAAACATGCAC (..((((....))))..) have folding enthalpy greater than or equal to -30 kcal/mol?
Data returned: Condition met

Data request: Quick check: does GTCCCACGAAAGTGTGAC (((.(((....))).))) have folding enthalpy greater than or equal to -30 kcal/mol?
Data returned: Condition not met

Data request: Quick check: does GATCTGAGTCAGATC ((((((...)))))) have folding enthalpy greater than or equal to -30 kcal/mol?
Data returned: Condition not met

Data request: Quick check: does GACATTGAAAAATGTC ((((((....)))))) have folding enthalpy greater than or equal to -30 kcal/mol?
Data returned: Condition not met

Data request: Quick check: does GCGTACGAAAGTATGCGC ((((((....)))..))) have folding enthalpy greater than or equal to -30 kcal/mol?
Data returned: Condition not met

Data request: Quick check: does GGTTGCGAAAGCACCACC ((((((....)))..))) have folding enthalpy greater than or equal to -30 kcal/mol?
Data returned: Condition met

Data request: Quick check: does AAAACGAAAGTTTT (((((....))))) have folding enthalpy greater than or equal to -30 kcal/mol?
Data returned: Condition met

Data request: Quick check: does GTTAGCGGAAACGCCAAC (((.(((....))).))) have folding enthalpy greater than or equal to -30 kcal/mol?
Data returned: Condition met

Data request: Quick check: does GGTTTTGAAAAAAACC ((((((....)))))) have folding enthalpy greater than or equal to -30 kcal/mol?
Data returned: Condition met

Data request: Quick check: does GCGACGGCGAAAGCCCGC (((..(((....)))))) have folding enthalpy greater than or equal to -30 kcal/mol?
Data returned: Condition met

Data request: Quick check: does GATCTCGCCGAGATC ((((((...)))))) have folding enthalpy greater than or equal to -30 kcal/mol?
Data returned: Condition not met

Data request: Quick check: does GCGCCTCGAAAGAGCGC (((.(((....)))))) have folding enthalpy greater than or equal to -30 kcal/mol?
Data returned: Condition not met

Data request: Quick check: does GCAGGTGGAAACGCCTGC (((((.(....).))))) have folding enthalpy greater than or equal to -30 kcal/mol?
Data returned: Condition not met

Data request: Quick check: does GCCCGCGAAAGCGCAGGC ((((((....)))..))) have folding enthalpy greater than or equal to -30 kcal/mol?
Data returned: Condition met

Data request: Quick check: does CGCGGAGCGATCCGCG ((((((....)))))) have folding enthalpy greater than or equal to -30 kcal/mol?
Data returned: Condition met

Data request: Quick check: does GATCGCAATCGCGATC ((((((....)))))) have folding enthalpy greater than or equal to -30 kcal/mol?
Data returned: Condition not met

Data request: Quick check: does GTTCGTCGAAAGACAAC (((.(((....)))))) have folding enthalpy greater than or equal to -30 kcal/mol?
Data returned: Condition met

Data request: Quick check: does GTAAGCGAAAGCTGGTAC ((((((....)))..))) have folding enthalpy greater than or equal to -30 kcal/mol?
Data returned: Condition met

Data request: Quick check: does CGAGATCGGAAACGATCG (((..(((....)))))) have folding enthalpy greater than or equal to -30 kcal/mol?
Data returned: Condition met

Data request: Quick check: does GTACACGAAAGTGCTTAC ((((((....)))..))) have folding enthalpy greater than or equal to -30 kcal/mol?
Data returned: Condition met

Data request: Quick check: does GGATCCGGAAACGGATTC (.(((((....))))).) have folding enthalpy greater than or equal to -30 kcal/mol?
Data returned: Condition met

Data request: Quick check: does GCGCTCGAAAGAGGTCGC ((((((....)))..))) have folding enthalpy greater than or equal to -30 kcal/mol?
Data returned: Condition met
